Entry source: ChEMBL document CHEMBL1149845

protocol-details: Cytotoxicity against human GLC82 cells after 2 days by MTT assay
Type: functional, cell-based
measurement-conditions: GLC82, 48 h
measured-endpoint: pIC50
By convention, pIC50 is the negative base-10 log of a molar concentration.

For "CC(=O)c1c2c(n3cccc(N)c13)C(=O)c1cccnc1C2=O" the molecule record lists pIC50 as 4.99

GET /value?item= "CCOC(=O)c1c2c(n3cccc(C)c13)C(=O)c1ncccc1C2=O" &field=pIC50 returns 5.74

Note to self: pIC50 recorded for "CC(=O)c1c2c(n3cccc(Br)c13)C(=O)c1cccnc1C2=O" was 5.33

Record summary for "CC(=O)c1c2c(n3cccc(Cl)c13)C(=O)c1ncccc1C2=O" : reported pIC50 = 5.16

Summary for this molecule, "CC(=O)c1c2c(n3cccc(O)c13)C(=O)c1ncccc1C2=O" : pIC50 is 4.71

The molecule identified as "O=C1c2cccnc2C(=O)c2c1cc1ccccn21" registered its pIC50 at 4.94

---

protocol-details: Cytotoxicity against human GLC82 cells after 2 days by MTT assay
Assay type: functional, cell-based
measurement-conditions: GLC82, 48 h
Give pIC50 for every item shown.
Quick note: pIC50 values are minus log10 of concentrations in mol/L.

Looking up "CCOC(=O)c1c2c(n3cccc(Br)c13)C(=O)c1cccnc1C2=O" , I found its pIC50 recorded as 5.96

Lab note: "CC(=O)c1c2c(n3cccc(Cl)c13)C(=O)c1cccnc1C2=O" gave pIC50 of 4.79

The compound identified as "O=C1c2cc3ccccn3c2C(=O)c2cccnc21" registered its pIC50 at 4.78

# pIC50 of "CCOC(=O)c1c2c(n3cccc(O)c13)C(=O)c1cccnc1C2=O" = 4.62

The compound listed as "CC(=O)c1c2c(n3cccc(F)c13)C(=O)c1ncccc1C2=O" has a reported pIC50 of 5.28

Form field pIC50, entry "Cc1c2c(n3ccccc13)C(=O)c1cccnc1C2=O" : 4.67

GET /value?item= "CC(=O)c1c2c(n3cccc(F)c13)C(=O)c1cccnc1C2=O" &field=pIC50 returns 4.90

Record "CCOC(=O)c1c2c(n3cccc(Cl)c13)C(=O)c1cccnc1C2=O" . Reported pIC50: 5.01

GET /value?item= "Cc1c2c(n3ccccc13)C(=O)c1ncccc1C2=O" &field=pIC50 returns 4.85

---

protocol-details: Cytotoxicity against human GLC82 cells after 2 days by MTT assay
Assay type: functional, cell-based
measurement-conditions: GLC82, 48 h
Assignment: determine reported pIC50 for the given compounds.
# pIC50 is unitless: minus log10 of the molar concentration; print number only

The recorded pIC50 for entry "CC(=O)c1c2c(n3cccc(N)c13)C(=O)c1ncccc1C2=O" equals 4.91

Value of pIC50 reported for the compound "CCOC(=O)c1c2c(n3cccc(N)c13)C(=O)c1ncccc1C2=O" is 4.63

pIC50 for "CC(=O)c1c2c(n3cccc(Br)c13)C(=O)c1ncccc1C2=O" is 5.70

Looking up "CC(=O)c1c2c(n3ccccc13)C(=O)c1cccnc1C2=O" , I see its pIC50 listed as 5.72

For this compound ( "CCOC(=O)c1c2c(n3cccc(C)c13)C(=O)c1cccnc1C2=O" ), measured pIC50 is 5.03

Lab note: "CC(=O)c1c2c(n3cccc(O)c13)C(=O)c1cccnc1C2=O" gave pIC50 of 4.79

# pIC50 of "CCOC(=O)c1c2c(n3ccccc13)C(=O)c1cccnc1C2=O" = 5.62

Lab note: measured pIC50 of "CCOC(=O)c1c2c(n3cccc(F)c13)C(=O)c1cccnc1C2=O" was 5.77

Query "CCOC(=O)c1c2c(n3cccc(O)c13)C(=O)c1ncccc1C2=O" yields pIC50 of 5.14

"CCOC(=O)c1c2c(n3cccc(N)c13)C(=O)c1cccnc1C2=O" yielded pIC50 of 4.63

---

protocol-details: Cytotoxicity against human GLC82 cells after 2 days by MTT assay
Format: functional, cell-based
measurement-conditions: GLC82, 48 h
pIC50: −log10 of the molar value.
Task for the reader: assign each of the following molecules its reported pIC50.

pIC50 in this record for "CCOC(=O)c1c2c(n3ccccc13)C(=O)c1ccccc1C2=O" : < 4.60

// sample "CCOC(=O)c1c2c(n3ccccc13)C(=O)c1ncccc1C2=O" , its pIC50 was > 6.60

Lookup result for "CCOC(=O)c1c2c(n3cccc(Cl)c13)C(=O)c1ncccc1C2=O" ; measured pIC50: > 6.60
